assay: in vitro; details: human, HepG2 cells
Description: Cytotoxicity against human HepG2 cell assessed as safe dose that maintains 100% cell viability incubated for 72 hrs by MTT assay
Hi, to clarify the labels: fulfilled covers MNTC at 72 h from 3 µM upward, not fulfilled covers anything below 3 µM.

Past entries and their recorded results:
1. Brc1ccc(-n2cc(COc3ccc(/C=N/Nc4c5c(nc6ccccc46)CCCC5)cc3)nn2)cc1.Cl	fulfilled
2. O=[N+]([O-])c1cccc(-n2cc(COc3ccc(/C=N/Nc4c5c(nc6ccccc46)CCCC5)cc3)nn2)c1	fulfilled
3. COc1ccc(NC(=S)NNc2c3c(nc4ccccc24)CCCC3)cc1	fulfilled

Confirm if MNTC at 72 h reported for the compound C(=N\Nc1c2c(nc3ccccc13)CCCC2)/c1ccc(OCc2cn(-c3ccccc3)nn2)cc1 is 3 µM or above.
fulfilled

One more compound: O=[N+]([O-])c1ccc(-n2cc(COc3ccc(/C=N/Nc4c5c(nc6ccccc46)CCCC5)cc3)nn2)cc1
fulfilled

One more compound: C=CCNC(=S)NNc1c2c(nc3ccccc13)CCCC2
not fulfilled

One more compound: C#CCOc1ccc(/C=N/Nc2c3c(nc4ccccc24)CCCC3)cc1
not fulfilled

One more compound: NS(=O)(=O)c1ccc(NC(=S)NNc2c3c(nc4ccccc24)CCCC3)cc1
not fulfilled

----------
Below: a set of entries, each annotated with reported IC50.
target: Acetylcholinesterase (Homo sapiens); assay: Inhibition of recombinant human AChE using acetylthiocholine iodide as substrate pre-incubated for 20 mins before substrate addition and measured for 180 secs by spectrophotometry based Ellman's method
Sequence (P22303 whole entry): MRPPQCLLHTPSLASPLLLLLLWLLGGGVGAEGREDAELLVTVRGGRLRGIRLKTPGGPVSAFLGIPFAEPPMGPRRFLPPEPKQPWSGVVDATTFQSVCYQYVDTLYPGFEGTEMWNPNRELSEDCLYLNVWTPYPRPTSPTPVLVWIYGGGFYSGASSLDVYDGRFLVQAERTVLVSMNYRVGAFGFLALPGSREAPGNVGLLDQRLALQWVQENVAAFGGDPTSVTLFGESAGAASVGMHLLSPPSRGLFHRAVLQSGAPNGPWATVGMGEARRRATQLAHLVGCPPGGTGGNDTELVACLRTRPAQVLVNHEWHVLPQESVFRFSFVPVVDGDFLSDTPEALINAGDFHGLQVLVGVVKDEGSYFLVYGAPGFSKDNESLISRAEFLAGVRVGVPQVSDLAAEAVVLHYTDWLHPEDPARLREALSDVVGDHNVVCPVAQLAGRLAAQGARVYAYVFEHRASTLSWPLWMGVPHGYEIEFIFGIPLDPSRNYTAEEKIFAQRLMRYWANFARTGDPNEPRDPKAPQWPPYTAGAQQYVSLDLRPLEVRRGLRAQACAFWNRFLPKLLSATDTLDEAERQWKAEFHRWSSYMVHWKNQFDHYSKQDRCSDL
Dear colleague, please return just the value in nM, with no unit written.

Worked examples follow.
1. C=CCNC(=S)NNc1c2c(nc3ccccc13)CCCC2	5770
2. O=[N+]([O-])c1cccc(-n2cc(COc3ccc(/C=N/Nc4c5c(nc6ccccc46)CCCC5)cc3)nn2)c1	1460
3. Cc1ccc(-n2cc(COc3ccc(/C=N/Nc4c5c(nc6ccccc46)CCCC5)cc3)nn2)cc1.Cl	3750
4. NS(=O)(=O)c1ccc(-n2cc(COc3ccc(/C=N/Nc4c5c(nc6ccccc46)CCCC5)cc3)nn2)cc1	1110
5. NS(=O)(=O)c1ccc(NC(=S)NNc2c3c(nc4ccccc24)CCCC3)cc1	961
6. S=C(NNc1c2c(nc3ccccc13)CCCC2)Nc1ccc(Cl)cc1	786
7. COc1ccc(-n2cc(COc3ccc(/C=N/Nc4c5c(nc6ccccc46)CCCC5)cc3)nn2)cc1.Cl	2300
8. S=C(NNc1c2c(nc3ccccc13)CCCC2)Nc1ccc(Br)cc1	571

For Acetylcholinesterase (Homo sapiens), provide IC50 of S=C(NNc1c2c(nc3ccccc13)CCCC2)Nc1ccccc1 please.
610

One more compound: COc1ccc(NC(=S)NNc2c3c(nc4ccccc24)CCCC3)cc1
293

One more compound: C(=N\Nc1c2c(nc3ccccc13)CCCC2)/c1ccc(OCc2cn(Cc3ccccc3)nn2)cc1
1050

One more compound: C#CCOc1ccc(/C=N/Nc2c3c(nc4ccccc24)CCCC3)cc1
2730

One more compound: Brc1ccc(-n2cc(COc3ccc(/C=N/Nc4c5c(nc6ccccc46)CCCC5)cc3)nn2)cc1.Cl
12800

One more compound: Cl.Clc1ccc(-n2cc(COc3ccc(/C=N/Nc4c5c(nc6ccccc46)CCCC5)cc3)nn2)cc1
7030

One more compound: O=[N+]([O-])c1ccc(-n2cc(COc3ccc(/C=N/Nc4c5c(nc6ccccc46)CCCC5)cc3)nn2)cc1
1050

One more compound: Cl.O=C(O)c1ccc(-n2cc(COc3ccc(/C=N/Nc4c5c(nc6ccccc46)CCCC5)cc3)nn2)cc1
4030

One more compound: C(=N\Nc1c2c(nc3ccccc13)CCCC2)/c1ccc(OCc2cn(-c3ccccc3)nn2)cc1
900
